target: H3K9me3 peptide; experiment: ITC, peptide titrated into the chromodomain, 25 C
readout: pKd
FYI, pKd means -log10 of a concentration in mol per litre.

The recorded pKd for Cbx7.V1 chromodomain (tags removed) (designed binder) SAIGDDIFAVESIRKKRVRKGKVEYLVKWEGWPLEYSTWEPEEHILDPRLVMAYEEKEERDRASGYRKRGPK is 5.15

FYI, the data here is from patent US20260266833A1.
